Molecular target: Hs_FPR1 (Homo sapiens, UniProt P21462)
Construct: expressed in transfected cells
Sequence (P21462 1-350): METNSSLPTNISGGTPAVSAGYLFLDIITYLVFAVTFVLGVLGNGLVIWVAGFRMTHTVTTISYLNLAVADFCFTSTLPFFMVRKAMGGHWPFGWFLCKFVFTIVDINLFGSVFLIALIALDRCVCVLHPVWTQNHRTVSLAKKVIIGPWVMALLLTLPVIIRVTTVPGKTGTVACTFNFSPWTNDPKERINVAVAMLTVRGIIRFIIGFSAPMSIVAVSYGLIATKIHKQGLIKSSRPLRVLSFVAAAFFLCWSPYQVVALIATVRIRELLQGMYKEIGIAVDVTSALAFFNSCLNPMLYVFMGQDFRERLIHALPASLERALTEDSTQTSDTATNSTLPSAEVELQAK
Test: BRET receptor-RLuc8 interaction with Arrestin 3-YFP
Type: cell-based
Where a SMILES comes first, the peptide text is derived from it. The star is where a group is joined. For = O=C*
readout: Emax
Units required after the number.

Past entries and their recorded results:
{"columns": ["compound", "tgt", "readout", "readoutValue"],
 "data": [
  ["CSCC[C@H](NC=O)C(=O)N[C@@H](CC(C)C)C(=O)N[C@@H](Cc1ccccc1)C(=O)N[C@@H](CCCCN)C(=O)O [fMLFK, fMet-Leu-Phe-Lys] (For-MLFK-OH)", "Hs_FPR1 (Homo sapiens, UniProt P21462)", "Emax", "97.4%"],
  ["CSCC[C@H](NC(=O)[C@H](Cc1ccc(O)cc1)NC(=O)[C@H](CCCCN)NC(=O)[C@@H](N)Cc1c[nH]c2ccccc12)C(=O)N[C@H](C(=O)N[C@H](CCSC)C(N)=O)C(C)C [WKYMVm]", "Hs_FPR1 (Homo sapiens, UniProt P21462)", "Emax", "105%"],
  ["CSCC[C@H](NC(=O)[C@@H](NC(=O)[C@H](CCSC)NC(=O)[C@H](Cc1ccc(O)cc1)NC(=O)[C@H](CCCCN)NC(=O)[C@@H](N)Cc1c[nH]c2ccccc12)C(C)C)C(N)=O [WKYMVM]", "Hs_FPR1 (Homo sapiens, UniProt P21462)", "Emax", "75%"]
]}

Turning now to a further record.
// sample COc1cc(F)c([C@@H]2CNC(=O)[C@H]2NC(=O)Nc2ccccc2)c(F)c1 [BMS-986235] , its Emax was 5.54%
